Test system: A549/ATCC NSCLC
assay.overview: NCI-60 one-dose screen, 48 h (100 = growth as untreated, 0 = no growth, -100 = all killed)
experimental.conditions: 10 µM unless noted
About 83,000 compounds went through this panel and 20% of them were active in at least one assay; those are over-represented in the sample as a whole.
Checkbox rule: growth lower than 50% = True; growth not lower than 50% = False.

Query: Field: below-cutoff. Rule: recorded growth strictly less than 50%. Subject: COc1cc(-c2cc(-c3nc4cc(Cl)c(Cl)cc4[nH]3)[nH]n2)cc(OC)c1OC
Reply: False

Query: Field: below-cutoff. Rule: recorded growth strictly less than 50%. Subject: CC(=O)OCCCCCCn1c2ccccc2c2c3c(c4c5ccccc5n(C)c4c21)C(=O)N(O)C3=O
Reply: False

Query: Field: below-cutoff. Rule: recorded growth strictly less than 50%. Subject: O=S(=O)(NCCNc1cc(-c2cn(-c3ccccc3)nc2-c2cccc(O)c2)ccn1)c1cccc(F)c1
Reply: True

Query: Field: below-cutoff. Rule: recorded growth strictly less than 50%. Subject: COC(=O)[C@]12CC[C@@H](C(/C=C/c3cccnc3)=N/O)[C@@H]1[C@H]1CC[C@@H]3[C@@]4(C)CC(=C/c5cccnc5)/C(=N/O)C(C)(C)[C@@H]4CC[C@@]3(C)[C@]1(C)CC2
Reply: True

Query: Field: below-cutoff. Rule: recorded growth strictly less than 50%. Subject: COc1cnc2c(c1)C(=O)c1c-2n(CCCNC(C)C)c(=O)c2cc([N+](=O)[O-])ccc12
Reply: True
